testMethodNotes: APR_HepG2_MitoticArrest_24hr: Apredica 24-hour HepG2 Assay for Mitotic Arrest (AID 2282910)
experimentalContext: high-content imaging, actives raise or lower the signal
Active and inactive are the calls of the source. Rule for the calls: active = hit-call score of the fitted dose curve at least 0.9, where 1 is the maximum; inactive = score below 0.9.
Thanks in advance; please answer with one of these: active, inactive

Cc1ccc(-c2c(Cl)nc(C#N)n2S(=O)(=O)N(C)C)cc1    inactive
CCOC(=O)CC(SP(=S)(OC)OC)C(=O)OCC (centres undefined)    inactive
O=C(O)COc1nc(Cl)c(Cl)cc1Cl    inactive
CC(C)Oc1cc(-n2nc(C(C)(C)C)oc2=O)c(Cl)cc1Cl    inactive
CCON=C(CC)C1=C(O)CC(c2c(C)cc(C)cc2C)CC1=O (centres undefined)    inactive

Query: Give the logged outcome of this assay for the following compound: Fc1ccc(Oc2ccnc3cc(Cl)cc(Cl)c23)cc1
Response: active

Query: Give the logged outcome of this assay for the following compound: CCCCNC(=O)OCC#CI
Response: inactive

Query: Give the logged outcome of this assay for the following compound: C=CC1(C)OC(=O)N(c2cc(Cl)cc(Cl)c2)C1=O (centres undefined)
Response: inactive

Query: Give the logged outcome of this assay for the following compound: Oc1ccccc1-c1ccccc1
Response: inactive

====

testMethodNotes: CCTE_Shafer_MEA_acute_spike_number: CCTE's Neural Acute Assay for Total Number of Spikes, Shafer Lab (AID 2284008);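 for AC50: curve fitted for decrease in spike count so AC50 reflects inhibitors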
The source made the active and inactive calls. Rule for the calls: active = hit-call score of the fitted dose curve at least 0.9, where 1 is the maximum; inactive = score below 0.9.
recordedMetric: AC50

OC(c1ccc(Cl)cc1)(c1cncnc1)c1ccccc1Cl (configuration not stated)    792 nM (active)
C=CCC1=C(C)C(OC(=O)C2C(C=C(C)C)C2(C)C)CC1=O (configuration not stated)    inactive
CO/C=C(/C(=O)OC)c1ccccc1Oc1cc(Oc2ccccc2C#N)ncn1    inactive
CNC(=O)ON=CC(C)(C)SC    inactive
CCNc1nc(Cl)nc(NC(C)C)n1    inactive
COc1ccc(C(c2ccc(OC)cc2)C(Cl)(Cl)Cl)cc1    inactive
CCCCNC(=O)OCC#CI    10200 nM (active)
CCCN(CCC)c1c([N+](=O)[O-])cc(S(N)(=O)=O)cc1[N+](=O)[O-]    4910 nM (active)

// for each compound below, give its AC50
1. COC(=O)C(C)Oc1ccc(Oc2ccc(Cl)cc2Cl)cc1 (configuration not stated)
2. CCCC1COC(Cn2cncn2)(c2ccc(Cl)cc2Cl)O1 (configuration not stated)
3. CC(Oc1ccc(Cl)cc1Cl)C(=O)O (configuration not stated)
4. COC(=O)N(OC)c1ccccc1COc1ccn(-c2ccc(Cl)cc2)n1

Response:
1: inactive; 2: inactive; 3: inactive; 4: 78.1 nM (active)

====

testMethodNotes: APR_HepG2_CellCycleArrest_72hr: Apredica 72-hour HepG2 Assay for Cell Cycle Arrest (AID 2282914)
experimentalContext: high-content imaging, actives raise or lower the signal
The source made the active and inactive calls. Rule for the calls: active = hit-call score of the fitted dose curve at least 0.9, where 1 is the maximum; inactive = score below 0.9.
Thanks in advance; please answer with one of these: Yes (active), No (inactive)

COc1ccc(C(c2ccc(OC)cc2)C(Cl)(Cl)Cl)cc1    No

Query: Give the logged outcome of this assay for the following compound: Oc1ccccc1-c1ccccc1
Response: No

Query: Give the logged outcome of this assay for the following compound: CCCCC(CC)COC(=O)c1ccccc1C(=O)OCC(CC)CCCC (configuration not stated)
Response: No

Query: Give the logged outcome of this assay for the following compound: C=CCC1=C(C)[C@@H](OC(=O)[C@@H]2[C@@H](C=C(C)C)C2(C)C)CC1=O
Response: No

Query: Give the logged outcome of this assay for the following compound: CCOC(=O)C(Cl)Cc1cc(-n2nc(C)n(C(F)F)c2=O)c(F)cc1Cl (configuration not stated)
Response: No
